experiment: chemical genetic growth profiling, strain panel (AID 1159580);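 further: tested at 20 µM; growth read once vehicle control cultures reached saturation at 30 °C; 1 = growth at the plate median or of vehicle wells; lower values mean less growth of the strain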; details: S. cerevisiae deletion strains, growth OD, locus YMR223W, strain ubp8, active compounds read low
About 2,000 (36%) of roughly 5,500 compounds were called active. Inconclusive results (about 18%) are left out. The list shows a part of the results.
normalized growth listing for selected compounds.
In your answer, state the number alone without any accompanying words.

CC1(C)CC2C1(O)CCC1(C)C=CC(O)C21CO (configuration not stated)    0.977

Looking for the measured normalized growth of C=CC(C)(O)CC/C=C(\C)CCC=C(C)C (configuration not stated) , can you help?
0.957

Looking for the measured normalized growth of COc1cc2c(c(OC)c1OC)-c1ccc(O)c(=O)cc1[C@@H](NC(C)=O)CC2 , can you help?
0.938

Looking for the measured normalized growth of Oc1c(I)cc(I)c2cccnc12 , can you help?
0.108

---

experiment: chemical genetic growth profiling, strain panel (AID 1159580);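 further: tested at 20 µM; growth read once vehicle control cultures reached saturation at 30 °C; 1 = growth at the plate median or of vehicle wells; lower values mean less growth of the strain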; conditions: S. cerevisiae deletion strains, growth OD, locus YFR019W, strain FAB1, active compounds read low
About 2,000 (36%) of roughly 5,500 compounds were called active. Another 18% or so got no clear call; they are omitted. The list shows a part of the results.
recordedMetric: normalized growth
In your answer, state the number alone without any accompanying words.

Before answering, review these 5 worked examples.
N#CCC(=O)NNC(=S)Nc1ccc(Cl)c(Cl)c1    0.969
O=C(NCCSCc1cccc(C(F)(F)F)c1)c1ccc(Cl)cc1    0.964
O=C(NC(=O)c1c(F)cccc1Cl)OCc1ccc(Cl)cc1Cl    0.941
O=C(NCCSCc1cccc(C(F)(F)F)c1)Nc1cccc(C(F)(F)F)c1    1
O=C(c1ccccc1)c1cc(Cl)ccc1NC(=S)Nc1ccc(F)cc1    0.945

Here's the next entry for you.
Looking for the measured normalized growth of Cc1ccc(S(=O)(=O)CCSC2=CC(=O)CC(C)(C)S2)cc1 , can you help?
0.905

---

assay: chemical genetic growth profiling, strain panel (AID 1159580);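 further: tested at 20 µM; growth read once vehicle control cultures reached saturation at 30 °C; 1 = growth at the plate median or of vehicle wells; lower values mean less growth of the strain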; settings: S. cerevisiae deletion strains, growth OD, locus YPR119W, strain clb2
Hit rate of the full screen: of about 5,500 compounds, about 2,000 (36%) were called active. Another 18% or so got no clear call; they are omitted. Rule as the data show it: active = normalized growth mostly below about 0.91 (no sharp cut-off); inconclusive = no clear call, values can overlap the other calls; inactive = mostly above about 0.92. This is one part of the list.
Please reply with one of these outcomes: active, inactive

Here are 2 compounds together with their reported answers.
Nc1ncnc2c1ncn2[C@@H]1O[C@H](CO)[C@@H](O)[C@H]1O    inactive
Nc1nc2c(ncn2C2C[C@H](O)[C@@H](CO)O2)c(=O)[nH]1 (stereo partly specified)    active

Write down the call the test reported for this compound. Item: O=c1[nH]c(=O)n(C2C[C@@H](O)[C@@H](CO)O2)cc1F (stereo partly specified)
inactive

Write down the call the test reported for this compound. Item: CC1(C)C(O)CC(O)C2(C)C1CC(=O)C1(C)C2CCC2(C)C(C(=O)O)OC(=O)C3OC321 (stereo unspecified)
inactive

Write down the call the test reported for this compound. Item: Nc1ncnc2c1ncn2C1O[C@H](COP(=O)(O)O)[C@@H](O)[C@H]1O (stereo partly specified)
inactive

Write down the call the test reported for this compound. Item: Cc1ccc(/C(=C\CN2CCCC2)c2ccccn2)cc1
inactive

---

experiment: chemical genetic growth profiling, strain panel (AID 1159580);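 further: tested at 20 µM; growth read once vehicle control cultures reached saturation at 30 °C; 1 = growth at the plate median or of vehicle wells; lower values mean less growth of the strain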; conditions: S. cerevisiae deletion strains, growth OD, locus YLR027C, strain aat2
Among all 5,500 compounds or so, about 2,000 (36%) were called active. Roughly 18% stayed inconclusive and do not appear here. Rule as the data show it: active = normalized growth mostly below about 0.91 (no sharp cut-off); inconclusive = no clear call, values can overlap the other calls; inactive = mostly above about 0.92. The list shows a part of the results.
Please reply with one of these outcomes: true = active, false = inactive

C[C@H]1[C@H]2CCC3C4CC=C5C[C@@H](N(C)C)CC[C@]5(C)C4CC[C@@]32CN1C (stereo partly drawn)    false
C=C(C)[C@H]1CC=C(C(=O)O)CC1    false
C=C[C@@H](C1=CC(=O)C(OC)=C(OC)C1=O)c1ccccc1    true
N[C@@H](Cc1ccc(O)c(O)c1)C(=O)O    false
C=C(C)C1CC=C(CO)CC1 (stereo not drawn)    false
C[C@H](N)[C@H](O)c1ccc(O)c(O)c1    false

Write down the call the test reported for this compound. Item: C=CC(C1=CC(=O)C(OC)=CC1=O)c1ccccc1 (stereo not drawn)
true

Write down the call the test reported for this compound. Item: O=C(O)C1=CCNCC1
false

Attribution: PubChem BioAssay AID1159580
